Could you please report measured EC50 for the items listed next?
target: UniProtKB P08172; details: Receptor activity EC50, M2-GIRK1/4 activation test, acetylcholine at EC20; allosteric potency; in some cases mean values from two or more determinations
Sequence (P08172 whole entry): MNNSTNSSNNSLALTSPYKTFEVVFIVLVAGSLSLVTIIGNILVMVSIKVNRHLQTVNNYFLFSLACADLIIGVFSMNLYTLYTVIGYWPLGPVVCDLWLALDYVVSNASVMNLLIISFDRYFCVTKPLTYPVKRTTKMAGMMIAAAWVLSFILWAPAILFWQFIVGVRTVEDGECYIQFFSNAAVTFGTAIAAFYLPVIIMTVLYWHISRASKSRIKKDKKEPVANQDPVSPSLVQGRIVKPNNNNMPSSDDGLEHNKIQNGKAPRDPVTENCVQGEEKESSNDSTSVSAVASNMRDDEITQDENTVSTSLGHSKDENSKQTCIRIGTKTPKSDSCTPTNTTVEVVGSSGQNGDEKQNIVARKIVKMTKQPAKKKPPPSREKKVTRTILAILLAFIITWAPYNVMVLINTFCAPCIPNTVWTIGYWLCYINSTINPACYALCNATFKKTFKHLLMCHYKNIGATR

# lookup: EC50 of `CC[C@@H](NC(=O)c1cn(-c2ccc(F)cc2F)c2nc(NCC(F)F)ccc2c1=O)C(F)(F)F`
115 nM

Field request: EC50 | item: `CN(C)c1ccc2c(=O)c(C(=O)NCc3c(Cl)cccc3Cl)cn(-c3ccc(F)cc3F)c2n1`
89 nM

Which measured EC50 value corresponds to CCC(NC(=O)c1cn(-c2ccc(F)cc2F)c2nc(N3CCCC3=O)ccc2c1=O)C(F)(F)F (stereo not shown) ?
138 nM

Using the record for CC(COC(F)(F)F)NC(=O)c1cn(-c2ccc(F)cc2F)c2nc(N(C)C)ccc2c1=O (racemic) , report its EC50.
120 nM
